Test system: Ipomoea hederacea (IPOHE)
assay remarks: Pre-emergence herbicide glasshouse test
Type: in vivo
experimental setup: 250 g/ha, evaluated after 13 days
Method: Seeds of a variety of test species are sown in standard soil in pots Amaranthus palmeri (AMAPA), Amaranthus retoflexus (AMARE), Echinochloa crus-galli (ECHCG), Ipomoea hederacea (IPOHE)). […] After 13 days for pre and post-emergence, the test is evaluated for the percentage damage caused to the plant. […]
measurement name: percentage damage caused to the plant, IPOHE (five-point scale)

Answered cases to consult:
Query: percentage damage caused to the plant, IPOHE (five-point scale); subject: FC(F)(F)c1cn(Cc2ncco2)c(-c2ccc(Cl)nc2)n1 5 (5=81-100%)

Similarly, Cc1cc(Cn2cc(C(F)(F)F)nc2-c2ccc(Cl)nc2)nn1C ? 1 (1=0-20%)

Similarly, Cc1noc(Cn2cc(C(F)(F)F)nc2-c2cnc(Cl)c(F)c2)n1 ? 5 (5=81-100%)

Similarly, COCCc1noc(Cn2cc(C(F)(F)F)nc2-c2ccc(C(F)(F)F)cc2)n1 ? 1 (1=0-20%)

Similarly, Cn1nnc(Cn2cc(C(F)(F)F)nc2-c2ccc(Cl)nc2)n1 ? 5 (5=81-100%)

Similarly, FC(F)(F)c1cn(Cc2ccsn2)c(-c2ccc(Cl)nc2)n1 ? 1 (1=0-20%)

Kindly consider the entry below.
Query: percentage damage caused to the plant, IPOHE (five-point scale); subject: Cc1cc(Cn2cc(C(F)(F)F)nc2-c2ccc(S(C)(=O)=O)cc2)ns1 5 (5=81-100%)
